System: MEF A1-2A-BIM cells, caspase 3/7 luminescence, 3 h
TEST NAME: inducers of caspase signal in A1-dependent MEFs – cell-based, luminescence, retest, A1 inhibitor project, dose response (AID 2765)
Calls of active or inactive are those of the source.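 Rule for the calls: active = half-maximal concentration for the rise in caspase light signal at or below ten times the top tested dose; inconclusive = flat fit between 30% and 70% activity, or unreliable curve fit; inactive = the rest.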
API: response.call in true for active, false for inactive

Completed entries (count: 4):
CN1C(=O)[C@H]2[C@@H](C3CC3)N3C(=O)CN(Cc4ccc(-c5ccccc5)cc4)C(=O)[C@@]3(C)[C@H]2C1=O
false
CCCCOC(=O)c1ccc(S(N)(=O)=O)o1
false
CC(C)(C)C#CC(CCc1ccccc1)OS(N)(=O)=O (configuration not stated)
false
COC(=O)[C@]1(C)CCC[C@@]2(C)C3CC[C@@]4(C)C[C@]3(CCC21)CC4=NO (some centres not stated)
false

### Prompt I'd appreciate the recorded outcome for CCN(CC)c1ncnc2c1cnn2Cc1ccc(Cl)cc1 from this test.
### Response false

### Prompt I'd appreciate the recorded outcome for O=C(/C=C/N1CCN(Cc2ccccc2)CC1)C(F)(F)F from this test.
### Response false

### Prompt I'd appreciate the recorded outcome for Cc1c(C)c(C)c(C(=O)CCc2cccc(NC(=O)CCC(=O)O)c2)c(C)c1C from this test.
### Response false

### Prompt I'd appreciate the recorded outcome for CSc1ccccc1NC(=O)c1ccc(N2CC3CC(C2)c2cccc(=O)n2C3)c(NC(=O)c2cccnc2)c1 (configuration not stated) from this test.
### Response false

### Prompt I'd appreciate the recorded outcome for COC(=O)C[C@H]1c2ccccc2S(=O)(=O)N1c1cccc(OC)c1 from this test.
### Response false

### Prompt I'd appreciate the recorded outcome for Cc1nc(NC(=O)CN2CCN(c3cccc(Cl)c3)CC2)sc1C(=O)N(C)C from this test.
### Response false

### Prompt I'd appreciate the recorded outcome for COc1ccc2[nH]c(C(=O)Nc3ccc(F)cc3Br)cc2c1 from this test.
### Response false

### Prompt I'd appreciate the recorded outcome for Cc1occc1-c1nnc(SCC(=O)NCCc2ccccc2)n1Cc1ccccc1 from this test.
### Response false

### Prompt I'd appreciate the recorded outcome for N#C/C(=C/c1ccc(N2CCOCC2)o1)c1ccc(Br)cc1 from this test.
### Response false

### Prompt I'd appreciate the recorded outcome for COC(=O)C1CSC(c2ccc(Cl)cc2)N1C(=O)c1ccccc1 (configuration not stated) from this test.
### Response false

### Prompt I'd appreciate the recorded outcome for CN(C)c1ccc(S(=O)(=O)N(C)C)cc1[N+](=O)[O-] from this test.
### Response false

### Prompt I'd appreciate the recorded outcome for COc1ccc(S(=O)(=O)N2CCCCC2C)cc1 (configuration not stated) from this test.
### Response false

### Prompt I'd appreciate the recorded outcome for COc1ccc(CCNC(=O)CCOc2ccc(C)cc2)cc1OC from this test.
### Response false

### Prompt I'd appreciate the recorded outcome for Cc1ccc(S(=O)(=O)c2nnn3c2nc(Nc2cccc(C)c2)c2ccccc23)cc1 from this test.
### Response false

### Prompt I'd appreciate the recorded outcome for Cc1ccc2c(c1)C(=O)C(=O)N2Cc1ccc(Cl)cc1 from this test.
### Response false

### Prompt I'd appreciate the recorded outcome for CCOC(=O)c1sc(NC(=O)CSc2nc(C)cc(C)c2C#N)c(C#N)c1C from this test.
### Response false

### Prompt I'd appreciate the recorded outcome for CCN(CC)CCCN=C(C)c1c(O)n(-c2ccc(C)cc2)c(=O)[nH]c1=O from this test.
### Response false

### Prompt I'd appreciate the recorded outcome for COc1ccccc1-c1cc(C(F)(F)F)nc(S(=O)(=O)CCCC(=O)N2CCOCC2)n1 from this test.
### Response true
